Recorded values, source ChEMBL document CHEMBL6178021.

test: Tmax in ICR-CD1 mouse liver at 40 mg/kg, po; assay type: ADME, organism-based
quantity: Tmax (h)
The response must be a number in h with no trailing unit.

stdin: For CCC1=C(CC)/C(=C/NC2CCCCC2)N=C1c1ccc(C)[nH]1 , write its Tmax.
stdout: 30

----------
test: Metabolic stability in mouse liver microsomes assessed as half life measured up to 60 mins by LC/MS analysis; assay type: ADME, Microsome
# strict inequality: half-life < 40 min yields Yes, everything else yields No

The examples below pair each entry with its known result.
stdin: Does this molecule meet the criterion half-life < 40 min? CCC1=C(CC)/C(=C/NC23C[C@H]4C[C@@H](C2)C[C@@H](C3)C4)N=C1c1cc2cc(Cl)ccc2[nH]1
stdout: No

stdin: Is half-life of COC1=C(OC)/C(=C/NC23C[C@H]4C[C@@H](C2)C[C@@H](C3)C4)N=C1c1ccc[nH]1 strictly below 40 min?
stdout: No

stdin: Please determine if C(/NC1CCCCC1)=C1/N=C(c2ccc[nH]2)C2=C1CCCC2 is below 40 min in terms of half-life.
stdout: Yes

stdin: Lab log: compare recorded half-life with 40 min; is it strictly lower for CCC1=C(CC)/C(=C/NC2CCCCC2)N=C1c1ccc(-c2ccccc2)[nH]1 ?
stdout: No

stdin: Please determine if CCC1=C(CC)/C(=C/NC2CCCCCC2)N=C1c1ccc(Br)[nH]1 is below 40 min in terms of half-life.
stdout: No

stdin: Consider CCc1ccc(C2=N/C(=C\NC3CCCCCC3)C(C)=C2C)[nH]1 . Does its half-life lie strictly below 40 min?
stdout: No

stdin: In the record for CCC1=C(CC)/C(=C/NC2CCCCCC2)N=C1c1ccc(-c2ccccc2)[nH]1 , is half-life less than 40 min?
stdout: Yes

As a next step, examine the molecule that follows.
stdin: half-life strictly < 40 min for this molecule? CCc1ccc(C2=N/C(=C\NC3CCCCCC3)C3=C2OCCO3)[nH]1
stdout: Yes
